Provenance of the data: ChEMBL document CHEMBL1649401

- measurement notes: Inhibition of amyloid beta (1 to 40) aggregation at 100 uM after 2 hrs by thioflavin T based fluorometric assay
Listed below: inhibition values for each entry.
Give just the number in %; leave the unit off.

Example compounds with recorded inhibition:
COc1ccc2c(c1)/C(=N/Nc1cccc(OCc3ccccc3)c1)C(=O)N2 :: 44
COc1ccc2[nH]c(O)c(/N=N/c3ccccc3)c2c1 :: 52
O=C1Nc2ccc([N+](=O)[O-])cc2/C1=N/Nc1ccc(Cl)cc1 :: 12
Oc1[nH]c2ccccc2c1/N=N/c1ccccc1 :: 61
COc1cc2c(cc1OC)/C(=N/Nc1ccccc1Cl)C(=O)N2 :: 68

As a next step, examine the compound that follows.
Data request: What measured inhibition goes with "O=C1Nc2ccccc2/C1=N/Nc1ccccc1Cl" ?
Data returned: 44
